measured_property: IC50 (µM)
Give the number; µM is assumed, so skip it.

*Q* State the measured IC50 (UniProtKB C7FF04) of C=C(C)C(CC=C(C)C)Cc1c(O)cc(O)c2c(=O)c(O)c(-c3ccc(O)cc3O)oc12 (stereo not shown) [Compound 3, kushenol C]
*A* 24.1

----------
# assay_summary: ABTS radical assay
# condition_parameters: 25 μM; triplicate
# Experimental: The ABTS radical cation assay was modified the method of Re et al.[15] Briefly, the mixture of 7.4 mM ABTS solution with 2.6 mM potassium persulfate incubated at room temperature in dark for 24 h. […] Absorbance value was monitored during 10 min at 732 nm using a spectrophotometer. The free radical value (SC50) was calculated by the log-dose inhibition curve. Scavenging activity (%)=[1–(extract absorbance/control absorbance)]×100.
measured_property: Scavenging activity of compounds on ABTS radical, 25 μM (%)
Note: unit % is implicit; provide only the numeric part.

*Q* Note down Scavenging activity of compounds on ABTS radical, 25 μM (%) recorded for C=C(C)[C@H](CC=C(C)C)Cc1c(O)cc(O)c2c1O[C@H](c1ccccc1O)CC2=O
*A* 93.7

*Q* Answer with reported Scavenging activity of compounds on ABTS radical, 25 μM (%) of C=C(C)C(CC=C(C)C)Cc1c(O)cc(O)c2c(=O)c(O)c(-c3ccc(O)cc3O)oc12 (stereo not drawn)
*A* 94.1

*Q* Provide measured Scavenging activity of compounds on ABTS radical, 25 μM (%) value, entry: COc1ccc(-c2coc3cc(O)ccc3c2=O)cc1
*A* 53.3

*Q* # return recorded Scavenging activity of compounds on ABTS radical, 25 μM (%) for entry CC(C)=CCc1c(O)cc(O)c2c1O[C@H](c1ccc(O)cc1)CC2=O
*A* 91.5

*Q* Quickly give me recorded Scavenging activity of compounds on ABTS radical, 25 μM (%) for O=C1O[C@H]([C@@H](O)CO)C(O)=C1O [Ascorbic acid, reference compound]
*A* 44.9

*Q* Kindly indicate its recorded Scavenging activity of compounds on ABTS radical, 25 μM (%). Item: CC(C)=CCc1c(O)cc(O)c2c(=O)c(O)c(-c3ccc(O)cc3)oc12
*A* 93.2

----------
# system_tested: tyrosinase (Agaricus bisporus)
# Sequence (C7FF04 1-392 limits assumed): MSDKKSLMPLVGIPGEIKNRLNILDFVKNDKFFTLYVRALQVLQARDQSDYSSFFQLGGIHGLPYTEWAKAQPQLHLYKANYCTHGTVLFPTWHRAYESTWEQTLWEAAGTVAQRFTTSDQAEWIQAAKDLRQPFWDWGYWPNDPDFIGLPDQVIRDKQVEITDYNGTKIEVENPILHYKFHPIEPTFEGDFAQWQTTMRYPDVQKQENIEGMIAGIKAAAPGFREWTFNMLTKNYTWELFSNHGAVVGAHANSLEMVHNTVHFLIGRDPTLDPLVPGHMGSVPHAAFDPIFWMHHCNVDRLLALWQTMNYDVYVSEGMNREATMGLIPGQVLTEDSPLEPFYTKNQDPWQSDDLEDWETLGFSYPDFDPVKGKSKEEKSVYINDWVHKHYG
# assay_summary: Tyrosinase assay (conversion of L-tyrosine to L-DOPA, UV-Vis 475 nm)
# Assay type: biochemical
# Design: purchased Sigma-Aldrich T3824
# condition_parameters: 100 μM inhibitor; L-tyrosine substrate; triplicate; read-out: Inhibitory activity of compounds on tyrosinase, 100 μM (%)
So I've got a bunch of molecules here, and I need their inhibition at 100 µM values.
Could you kindly put the unit after your number?

*Q* Report inhibition at 100 µM, nothing else, for this molecule: COc1ccc(-c2coc3cc(O)ccc3c2=O)cc1 [Compound 4, formononetin]
*A* 91.9%

*Q* Complete the entry with inhibition at 100 µM for C=C(C)[C@H](CC=C(C)C)Cc1c(O)cc(O)c2c1O[C@H](c1ccccc1O)CC2=O [Compound 1, kushenol A]
*A* 101%

*Q* Input CC(C)=CCc1c(O)cc(O)c2c(=O)c(O)c(-c3ccc(O)cc3)oc12 [Compound 2, 8-prenylkaempferol] , output reported inhibition at 100 µM.
*A* 90.4%

*Q* Please supply the value of reported inhibition at 100 µM for the item C=C(C)C(CC=C(C)C)Cc1c(O)cc(O)c2c(=O)c(O)c(-c3ccc(O)cc3O)oc12 (centres unmarked) [Compound 3, kushenol C]
*A* 81.1%

*Q* Supply measured inhibition at 100 µM of CC(C)=CCc1c(O)cc(O)c2c1O[C@H](c1ccc(O)cc1)CC2=O [Compound 5, 8-prenylnaringenin] in your reply.
*A* 27%
